- Test system: Saccharomyces cerevisiae lifespan shortening, growth inhibition
- assayProtocol: yeast lifespan shortening compounds, dose response (AID 849);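 further: yeast growth read as optical density after two days at 30 degrees C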
Activity calls are given as the source filed them. How the calls were made is not given here.
Classes used: active, inactive

1) Cc1nc2cc3ccccc3cc2c(=O)[nH]1: inactive
2) O=Nc1c(O)n(Cc2ccc(Cl)c(Cl)c2)c2ccccc12: inactive
3) CC1=C(C)/C(=N\OS(=O)(=O)c2ccc(C)cc2)C=CC1=O: active
4) COc1ccc(/C(C)=N/NC(=O)c2ccc(CSc3cccc4cccnc34)cc2)cc1OC: inactive
5) CCc1cccc2c(C(=O)COC(=O)c3ccc([N+](=O)[O-])s3)c[nH]c12: active
6) Nc1ccc(SC(F)(F)F)cc1C(=O)c1ccccc1: inactive
7) CC(Oc1ccc(Cl)cc1Cl)C(=O)NC1=NN(c2ccccc2)C(=O)C1 (stereo not given): active
8) Oc1c(Br)cc(Br)cc1C=Nc1ccc2c(c1)OCO2: inactive
9) CC(=O)O/N=C/c1c(N2CCOCC2)n(C)c2ccccc12: active
10) CC(=O)n1cc(C(C[N+](=O)[O-])SCCN)c2ccccc21 (stereo not given): active
11) NC(N)=N/N=C/c1ccc(OCc2ccc(Cl)cc2Cl)cc1: inactive
12) CC1=NNC(=O)/C1=C\c1cn(-c2ccccc2)nc1-c1cccs1: active
13) Cc1ccnn2cc3c(=O)n(C)c(=O)n(C)c3c12: active
14) Oc1c(N=Nc2ccccn2)ccc2ccccc12: active
15) CCCCS(=O)(=O)/C=C\C=C/S(=O)(=O)CCCC: inactive
